For each of the sequences below, state its sensor-assay potency score (higher = more potent).
target: SLC23A2; experiment: pooled miR-30 sensor sort-seq; sequence = guide strand; details: shRNA; also: reference of the scale not given here
Answer as a number with no unit attached.

sensor-assay potency score (higher = more potent) reading for TATGCCATCAAGAACACAGGAG : 0.397

sensor-assay potency score (higher = more potent) reading for TAATACTAGGAATATTGTCAGC : -0.987

sensor-assay potency score (higher = more potent) reading for TTCTGTCTGAGGTAACTTGGAA : -0.6

sensor-assay potency score (higher = more potent) reading for TTCAACACTTGATCGATTCCTG : 0.272

* * *

target: GALE; assay: pooled miR-30 sensor sort-seq; sequence = guide strand; conditions: shRNA
For each of the sequences below, state its sensor-assay potency score (higher = more potent).
Answer as a number with no unit attached.

sensor-assay potency score (higher = more potent) reading for TCACACATCCTGTCCAGCCCTA : -0.0923

sensor-assay potency score (higher = more potent) reading for TGAAATAGCGCAGCAGCACTGC : -0.836

sensor-assay potency score (higher = more potent) reading for TCAAACTCCACAGAGCGGCCTG : -0.0381

sensor-assay potency score (higher = more potent) reading for TGGATGACCGCCATAAAGCTGT : -0.62

sensor-assay potency score (higher = more potent) reading for TCTGTGTCATAGTCATTGCCAA : -0.861

sensor-assay potency score (higher = more potent) reading for TAACTCTGTAATAATCCAGAGG : -0.909

sensor-assay potency score (higher = more potent) reading for ATCCTCACACATCCTGTCCAGC : -0.56

sensor-assay potency score (higher = more potent) reading for TACTTTGGAAAGCTCTTTCAGA : -0.275

sensor-assay potency score (higher = more potent) reading for AATAGCGCAGCAGCACTGCGTT : -1.17

sensor-assay potency score (higher = more potent) reading for AACACCAGGTTCTTCACCCCGT : -0.43

sensor-assay potency score (higher = more potent) reading for TGAAGAACTTGGACTTGCCGTA : -0.185

sensor-assay potency score (higher = more potent) reading for TACTTTTTGAAGAGACGCTGTA : -0.402

sensor-assay potency score (higher = more potent) reading for TTCCTCGATGAAGAACTTGGAC : -0.651

sensor-assay potency score (higher = more potent) reading for TTCCAAGTCTTGTCTGCCTGGC : -0.133

* * *

target: HIP1R; test: pooled miR-30 sensor sort-seq; sequence = guide strand; conditions: shRNA
Think of -0.8 as a floor: if sensor-assay potency score (higher = more potent) stands on it or above, it is fulfilled; beneath it, not fulfilled.

In: Determine whether measured sensor-assay potency score (higher = more potent) meets or exceeds -0.8 for TTGATGGCTTTGCTGATGCTGA
Out: not fulfilled

In: Determine whether measured sensor-assay potency score (higher = more potent) meets or exceeds -0.8 for TTGAAGTACAGCATGTCGGAGG
Out: fulfilled

In: Determine whether measured sensor-assay potency score (higher = more potent) meets or exceeds -0.8 for TAATCAAACATCTCCACAGTGA
Out: fulfilled

In: Determine whether measured sensor-assay potency score (higher = more potent) meets or exceeds -0.8 for TACCTCATCTGTCACCTCCAGG
Out: not fulfilled

In: Determine whether measured sensor-assay potency score (higher = more potent) meets or exceeds -0.8 for ATGTTGTTGACATCGGTCCCAG
Out: not fulfilled

In: Determine whether measured sensor-assay potency score (higher = more potent) meets or exceeds -0.8 for TTGAGCTGTCGGAAAACTGATT
Out: not fulfilled

* * *

For each of the sequences below, state its sensor-assay potency score (higher = more potent).
target: GLIPR2; experiment: pooled miR-30 sensor sort-seq; sequence = guide strand; details: shRNA
Answer as a number with no unit attached.

sensor-assay potency score (higher = more potent) reading for TTATAGTTCTTGATTTCACTGT : 0.709

sensor-assay potency score (higher = more potent) reading for ATAGTTCTTGATTTCACTGTAC : 0.205

sensor-assay potency score (higher = more potent) reading for TTTCCTGTCTGATCATAGGATG : -0.835

sensor-assay potency score (higher = more potent) reading for ATCTTCTTGGTGTTCTTCCATA : -1.63

sensor-assay potency score (higher = more potent) reading for TCATTGACAACATTCCCCGCTG : -0.0819

* * *

target: DNMT3L; test: pooled miR-30 sensor sort-seq; sequence = guide strand; conditions: shRNA
endpoint: sensor-assay potency score (higher = more potent)
Answer as a number with no unit attached.

sensor-assay potency score (higher = more potent) reading for ATGTCTTCTATATTTCGCTGGT : -0.668

sensor-assay potency score (higher = more potent) reading for AATACTTGAAATATTCTCTTAG : 0.0137

sensor-assay potency score (higher = more potent) reading for TATGCAATAAGATCTCTGCCTG : -0.0706

sensor-assay potency score (higher = more potent) reading for AACTGGAACAGGTACCAGCTGG : -0.764

sensor-assay potency score (higher = more potent) reading for TATATTTCGCTGGTTAGCCTTG : -0.491

sensor-assay potency score (higher = more potent) reading for TTGGTACCCGTCATCGTCGTAC : -0.554

sensor-assay potency score (higher = more potent) reading for TTCTGTTGAAAAATACTTGAAA : -0.77

* * *

molecular target: TBX15; assay: pooled miR-30 sensor sort-seq; sequence = guide strand; conditions: shRNA
Think of -0.3 as a floor: if sensor-assay potency score (higher = more potent) stands on it or above, it is 1; beneath it, 0.

In: Determine whether measured sensor-assay potency score (higher = more potent) meets or exceeds -0.3 for TTTTAATCTGGTAATCTGCTGA
Out: 1

In: Determine whether measured sensor-assay potency score (higher = more potent) meets or exceeds -0.3 for TAGGCTTCCATCTTGCTGTTGC
Out: 1

In: Determine whether measured sensor-assay potency score (higher = more potent) meets or exceeds -0.3 for TTCAGTTCCAATATCATGGAAC
Out: 1

In: Determine whether measured sensor-assay potency score (higher = more potent) meets or exceeds -0.3 for TACACAGACAAATTCTTGGTGA
Out: 1

In: Determine whether measured sensor-assay potency score (higher = more potent) meets or exceeds -0.3 for TGTCTTTCCACTCTCATCCATT
Out: 0

In: Determine whether measured sensor-assay potency score (higher = more potent) meets or exceeds -0.3 for TTGCTATGTAGTACTGCTGATG
Out: 0

In: Determine whether measured sensor-assay potency score (higher = more potent) meets or exceeds -0.3 for TTGTACACAGACAAATTCTTGG
Out: 1

In: Determine whether measured sensor-assay potency score (higher = more potent) meets or exceeds -0.3 for TTGATCATCCAACTCATTGTTG
Out: 0

* * *

biological target: TEAD3; assay: pooled miR-30 sensor sort-seq; sequence = guide strand; conditions: shRNA
For each of the sequences below, state its sensor-assay potency score (higher = more potent).
Answer as a number with no unit attached.

sensor-assay potency score (higher = more potent) reading for TTGATCATGTACTCGCACATGG : 0.181

sensor-assay potency score (higher = more potent) reading for TTTCTCGTCCGAGTCTTCCCCG : -0.491

sensor-assay potency score (higher = more potent) reading for TTGAGGTCGGCCCAGAACTTGA : -1.66

sensor-assay potency score (higher = more potent) reading for TTTAATATAGCGTGCAATCAAC : -1.47

sensor-assay potency score (higher = more potent) reading for TTGTTCTGCAGGACACTGGCAG : -0.245

sensor-assay potency score (higher = more potent) reading for TATGCAAACAGTGAGGACCTTC : -0.217

sensor-assay potency score (higher = more potent) reading for TTTGCCAAAGGAGCACACCTTG : -1.16

sensor-assay potency score (higher = more potent) reading for TACTCCCGCACCTTCTTCCGAG : -0.896

sensor-assay potency score (higher = more potent) reading for TATAGCGTGCAATCAACTCATT : -1.09

* * *

target: PHF19; experiment: pooled miR-30 sensor sort-seq; sequence = guide strand; details: shRNA
For each of the sequences below, state its sensor-assay potency score (higher = more potent).
Answer as a number with no unit attached.

sensor-assay potency score (higher = more potent) reading for TGAATCTTTTTGAAGGTGCAGA : 0.0337

sensor-assay potency score (higher = more potent) reading for TAAACTTTGAATTTCATCCAGC : 0.174

sensor-assay potency score (higher = more potent) reading for TAACATTGCAGCATCCGCAGGT : 0.519

sensor-assay potency score (higher = more potent) reading for TTGTTCTTGACCTTCGCCAGGG : 0.174

sensor-assay potency score (higher = more potent) reading for TTTATAACTGTTCAGAGCGTTG : -1.51

sensor-assay potency score (higher = more potent) reading for TTTGAAGTTGTTCTTGACCTTC : -0.341

* * *

target: TFEB; assay: pooled miR-30 sensor sort-seq; sequence = guide strand; settings: shRNA
For each of the sequences below, state its sensor-assay potency score (higher = more potent).

Fill in: TFEB sensor-assay potency score (higher = more potent) for TACACATTCAGGTGGCTGCTGG = -0.605

Fill in: TFEB sensor-assay potency score (higher = more potent) for TTGATGTTGAACCTTCGTCTCC = -0.765

Fill in: TFEB sensor-assay potency score (higher = more potent) for ATCTGTGAGCTCTCGCTTCTGG = -0.356

Fill in: TFEB sensor-assay potency score (higher = more potent) for TTCGCTAGGCAGCTCCTGCTTC = -0.419

Fill in: TFEB sensor-assay potency score (higher = more potent) for TAGCAGTGAGTCGTCCAGGAGC = -1.35

Fill in: TFEB sensor-assay potency score (higher = more potent) for AAGGACATCGTCCAGACGCATA = -1.55
